TARGET: Carbonic anhydrase 9 (Homo sapiens, UniProt Q16790)
ASSAY: Inhibition of recombinant human CA9 using 4-nitrophenylacetate as substrate by esterase assay
Listed here are compounds together with their documented IC50.

Here are 2 compounds together with their reported answers.
[
  {
    "STRUCTURE_AS_SMILES": "CCCO[C@@H]1O[C@H](CNC(=O)c2ccc(S(N)(=O)=O)cc2)[C@@H](O)[C@H](O)[C@H]1O",
    "MEASURED_VALUE": "160 nM"
  },
  {
    "STRUCTURE_AS_SMILES": "CCO[C@@H]1O[C@H](CNC(=O)c2ccc(S(N)(=O)=O)cc2)[C@@H](O)[C@H](O)[C@H]1O",
    "MEASURED_VALUE": "190 nM"
  }
]

In: Recorded IC50 for "CCO[C@@H]1O[C@H](CNC(=O)c2ccc(S(N)(=O)=O)cc2)[C@@H](O)[C@H](O)[C@H]1N" , please?
Out: 220 nM

In: Find the recorded IC50 belonging to "CCO[C@@H]1O[C@H](CNC(=O)c2ccc(S(N)(=O)=O)cc2)[C@H](O)[C@H](O)[C@H]1O" and report it.
Out: 180 nM

====

Below is a list of entries, each paired with its recorded IC50 value.
TARGET: UniProtKB P00915
Sequence (P00915 whole entry): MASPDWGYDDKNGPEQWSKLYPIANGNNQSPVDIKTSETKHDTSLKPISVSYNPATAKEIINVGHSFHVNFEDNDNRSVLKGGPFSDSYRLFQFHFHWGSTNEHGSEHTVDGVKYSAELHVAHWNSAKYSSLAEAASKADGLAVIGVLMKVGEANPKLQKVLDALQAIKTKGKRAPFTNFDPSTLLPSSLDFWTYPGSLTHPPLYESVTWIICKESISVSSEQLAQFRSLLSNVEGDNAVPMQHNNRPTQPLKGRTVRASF
ASSAY: Inhibition of recombinant human CA1 using 4-nitrophenylacetate as substrate by esterase assay
Give the quantity in nM, number only.

Worked set:
[
  {
    "STRUCTURE_AS_SMILES": "CO[C@@H]1O[C@H](CNC(=O)c2ccc(S(N)(=O)=O)cc2)[C@@H](O)[C@H](O)[C@@H]1O",
    "EXPERIMENTAL_ENDPOINT": "IC50",
    "MEASURED_VALUE": 2900
  },
  {
    "STRUCTURE_AS_SMILES": "CO[C@@H]1O[C@H](CNC(=O)c2ccc(S(N)(=O)=O)cc2)[C@H](O)[C@H](O)[C@H]1O",
    "EXPERIMENTAL_ENDPOINT": "IC50",
    "MEASURED_VALUE": 2700
  },
  {
    "STRUCTURE_AS_SMILES": "CO[C@@H]1O[C@H](CNC(=O)c2ccc(S(N)(=O)=O)cc2)[C@@H](O)[C@H](O)[C@H]1O",
    "EXPERIMENTAL_ENDPOINT": "IC50",
    "MEASURED_VALUE": 2000
  }
]

Please turn your attention to the following entry.
In: Quick one: IC50 for "CO[C@@H]1O[C@H](CNC(=O)c2ccc(S(N)(=O)=O)cc2)[C@@H](O)[C@H](O)[C@H]1N" ?
Out: 2300

====

ASSAY: in vitro
ASSAY_CONDITIONS: mouse, liver microsomes
Description: Metabolic stability in mouse liver microsomes assessed as half-life
EXPERIMENTAL_ENDPOINT: half-life (h)
The reply should contain only the number, in h.

Below, 3 compounds whose answers are already recorded.
[
  {
    "COMPOUND": "CO[C@@H]1O[C@H](CNC(=O)c2ccc(S(N)(=O)=O)cc2)[C@@H](O)[C@H](O)[C@H]1O",
    "RESULT_UNIT": "h",
    "MEASURED_VALUE": 58.6
  },
  {
    "COMPOUND": "O=C(O)Cc1ccccc1Nc1c(Cl)cccc1Cl [DICLOFENAC]",
    "RESULT_UNIT": "h",
    "MEASURED_VALUE": 0.667
  },
  {
    "COMPOUND": "CO[C@@H]1O[C@H](CNC(=O)c2ccc(S(N)(=O)=O)cc2)[C@@H](O)[C@H](O)[C@H]1N",
    "RESULT_UNIT": "h",
    "MEASURED_VALUE": 55.8
  }
]

Attention now shifts to the item below.
In: Need half-life, item "CCCO[C@@H]1O[C@H](CNC(=O)c2ccc(S(N)(=O)=O)cc2)[C@@H](O)[C@H](O)[C@@H]1O"
Out: 64.5

====

TARGET: Carbonic anhydrase 2 (Homo sapiens)
EXPERIMENTAL_ENDPOINT: pIC50
# reply with the number alone; pIC50 is -log10 of concentration in mol/L

In: Consider the compound "CO[C@@H]1O[C@H](CNC(=O)c2ccc(S(N)(=O)=O)cc2)[C@H](O)[C@H](O)[C@H]1O" and give its measured pIC50.
Out: 7.22

====

ASSAY: in vitro
ASSAY_CONDITIONS: mouse, liver microsomes
EXPERIMENTAL_ENDPOINT: half-life (days)
Note: unit days is implicit; provide only the numeric part.

In: # lookup: half-life of "CCO[C@@H]1O[C@H](CNC(=O)c2ccc(S(N)(=O)=O)cc2)[C@@H](O)[C@H](O)[C@H]1O"
Out: 2.48

In: Quick one: half-life of "CCO[C@@H]1O[C@H](CNC(=O)c2ccc(S(N)(=O)=O)cc2)[C@@H](O)[C@H](O)[C@H]1N" ?
Out: 2.44

In: Fill blank: measured half-life of the molecule "CCCO[C@@H]1O[C@H](CNC(=O)c2ccc(S(N)(=O)=O)cc2)[C@H](O)[C@H](O)[C@H]1O" is ____.
Out: 2.77

In: Can you share its half-life? I mean this molecule: "CO[C@@H]1O[C@H](CNC(=O)c2ccc(S(N)(=O)=O)cc2)[C@@H](O)[C@H](O)[C@@H]1O"
Out: 2.39

In: Need half-life of "CCO[C@@H]1O[C@H](CNC(=O)c2ccc(S(N)(=O)=O)cc2)[C@H](O)[C@H](O)[C@H]1O" , thanks.
Out: 2.55

====

Recorded solubility, one value per entry.
ASSAY: Solubility of compound in water
Format: physicochemical
ASSAY_CONDITIONS: buffer
Quick note: number first, unit second.

These solved cases illustrate the format of a correct answer.
[
  {
    "MOLECULE": "CO[C@@H]1O[C@H](CNC(=O)c2ccc(S(N)(=O)=O)cc2)[C@H](O)[C@H](O)[C@H]1O",
    "solubility": "2.1%"
  },
  {
    "MOLECULE": "CO[C@@H]1O[C@H](CNC(=O)c2ccc(S(N)(=O)=O)cc2)[C@@H](O)[C@H](O)[C@H]1N",
    "solubility": "2.5%"
  },
  {
    "MOLECULE": "CCO[C@@H]1O[C@H](CNC(=O)c2ccc(S(N)(=O)=O)cc2)[C@H](O)[C@H](O)[C@H]1O",
    "solubility": "2.1%"
  },
  {
    "MOLECULE": "CCCO[C@@H]1O[C@H](CNC(=O)c2ccc(S(N)(=O)=O)cc2)[C@@H](O)[C@H](O)[C@H]1N",
    "solubility": "2.2%"
  },
  {
    "MOLECULE": "CCCO[C@@H]1O[C@H](CNC(=O)c2ccc(S(N)(=O)=O)cc2)[C@@H](O)[C@H](O)[C@H]1O",
    "solubility": "2.1%"
  }
]

In: Record request: solubility value, item "CCCO[C@@H]1O[C@H](CNC(=O)c2ccc(S(N)(=O)=O)cc2)[C@@H](O)[C@H](O)[C@@H]1O"
Out: 2.1%

In: What value of solubility has been reported for the following molecule? "CCO[C@@H]1O[C@H](CNC(=O)c2ccc(S(N)(=O)=O)cc2)[C@@H](O)[C@H](O)[C@H]1O"
Out: 2.2%

====

Organism: Homo sapiens
ASSAY: Selectivity ratio of IC50 for inhibition of recombinant human CA1 to IC50 for inhibition of recombinant human CA2 using 4-nitrophenylacetate as substrate by esterase assay
EXPERIMENTAL_ENDPOINT: Selectivity ratio
API note: the answer field is a bare number with no unit suffix.

The examples below pair each entry with its known result.
[
  {
    "STRUCTURE_AS_SMILES": "CO[C@@H]1O[C@H](CNC(=O)c2ccc(S(N)(=O)=O)cc2)[C@H](O)[C@H](O)[C@H]1O",
    "MEASURED_VALUE": 45
  },
  {
    "STRUCTURE_AS_SMILES": "CO[C@@H]1O[C@H](CNC(=O)c2ccc(S(N)(=O)=O)cc2)[C@@H](O)[C@H](O)[C@@H]1O",
    "MEASURED_VALUE": 41
  },
  {
    "STRUCTURE_AS_SMILES": "CO[C@@H]1O[C@H](CNC(=O)c2ccc(S(N)(=O)=O)cc2)[C@@H](O)[C@H](O)[C@H]1O",
    "MEASURED_VALUE": 20
  }
]

In: Looking for the measured Selectivity ratio of "CO[C@@H]1O[C@H](CNC(=O)c2ccc(S(N)(=O)=O)cc2)[C@@H](O)[C@H](O)[C@H]1N" , can you help?
Out: 19

====

Collected half-life values appear next to each entry.
ASSAY: in vitro
ASSAY_CONDITIONS: mouse, liver microsomes
Provide only the numeric value, understood in h.

Field: example entries. Status: answers known.
[
  {
    "STRUCTURE_AS_SMILES": "CCO[C@@H]1O[C@H](CNC(=O)c2ccc(S(N)(=O)=O)cc2)[C@@H](O)[C@H](O)[C@@H]1O",
    "RESULT_UNIT": "h",
    "half-life": 61.6
  },
  {
    "STRUCTURE_AS_SMILES": "CO[C@@H]1O[C@H](CNC(=O)c2ccc(S(N)(=O)=O)cc2)[C@H](O)[C@H](O)[C@H]1O",
    "RESULT_UNIT": "h",
    "half-life": 60.4
  },
  {
    "STRUCTURE_AS_SMILES": "CCCO[C@@H]1O[C@H](CNC(=O)c2ccc(S(N)(=O)=O)cc2)[C@@H](O)[C@H](O)[C@H]1O",
    "RESULT_UNIT": "h",
    "half-life": 59.9
  }
]

In: Which half-life is listed for "CCCO[C@@H]1O[C@H](CNC(=O)c2ccc(S(N)(=O)=O)cc2)[C@@H](O)[C@H](O)[C@H]1N" ?
Out: 64.4
